# TESTED_ON: h-TGR5 (Homo sapiens, UniProt Q8TDU6)
# Construct: expressed in transfected cells
# Sequence (Q8TDU6 1-330): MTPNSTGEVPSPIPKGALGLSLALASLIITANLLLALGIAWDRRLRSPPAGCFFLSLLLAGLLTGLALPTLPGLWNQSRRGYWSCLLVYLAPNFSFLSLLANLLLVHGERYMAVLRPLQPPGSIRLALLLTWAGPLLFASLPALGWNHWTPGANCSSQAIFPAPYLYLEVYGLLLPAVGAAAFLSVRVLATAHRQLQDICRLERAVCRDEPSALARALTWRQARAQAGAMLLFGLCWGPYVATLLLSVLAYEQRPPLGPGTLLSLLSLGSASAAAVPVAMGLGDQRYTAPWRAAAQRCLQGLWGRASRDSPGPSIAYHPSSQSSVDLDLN
# MEASUREMENT_PROTOCOL: TGR5 cAMP Assay using Cisbio cAMP Dynamic2 htrf kit (hTGR5CRE-luc HEK 293 cells)
# Assay type: cell-based
# TEST_PARAMETERS: hTGR5CRE-luc HEK 293 cells, htrf cAMP; Table 2; read-out: h-TGR5 cAMP EC50 (cAMP)
pEC50: −log10 of the molar value.
Reported pEC50 values for a set of molecules

Here's what some known entries look like.
{"MOLECULE": "CC(C)(c1ccc(Cl)c(Cl)c1)c1nnc(SCc2c(F)cc(C(=O)O)cc2F)n1-c1ccc(F)cc1 [Example 48]", "MEASUREMENT_LABEL": "pEC50", "VAL": "6.00 to 7.00"}
{"MOLECULE": "COc1cc(-n2c(SCc3ccc(Cl)c(-c4nnn[nH]4)c3)nnc2C(C)(C)c2ccc(Cl)c(OC)c2)ccc1F [Example 49]", "MEASUREMENT_LABEL": "pEC50", "VAL": "6.00 to 7.00"}
{"MOLECULE": "CC(C)(c1ccc2nccnc2c1)c1nnc(SCc2c(F)cccc2Cl)n1-c1ccc(F)cc1 [Example 45]", "MEASUREMENT_LABEL": "pEC50", "VAL": "> 7.00"}

Return pEC50 for the following molecule: CC(C)(c1ccc2cccnc2c1)c1nnc(SCc2c(F)cccc2Cl)n1-c1ccc(F)cc1 [Example 47]
> 7.00

---

# TESTED_ON: human TGR5 (h-TGR5) (Homo sapiens, UniProt Q8TDU6)
# Construct: expressed in transfected cells
# MEASUREMENT_PROTOCOL: TGR5/CRE-Luciferiase Assay (HEK 293 hTGR5/CRE-Luc cells)
# Assay type: cell-based
# TEST_PARAMETERS: h-TGR5 CRE-Luc EC50, Table 1; read-out: CRE-Luc (EC50)
MEASUREMENT_LABEL: EC50

Below, 2 compounds whose answers are already recorded.
{"COMPOUND_SMILES": "CC(C)(c1ccc(OCC(=O)O)cc1)c1cnc(SCc2c(F)cccc2Cl)n1-c1ccc(F)cc1", "MEASUREMENT_LABEL": "EC50", "VAL": "1 to 10 µM"}
{"COMPOUND_SMILES": "CC(C)(c1ccc(Cl)c(Cl)c1)c1cnc(SCc2ccc(F)cc2S(C)(=O)=O)n1-c1ccc(F)cc1", "MEASUREMENT_LABEL": "EC50", "VAL": "0.1 to 1 µM"}

Check the records and state EC50 for CC(C)(c1ccc(Cl)c(Cl)c1)c1cnc(SCc2ccc(Cl)c(C(=N)N)c2)n1-c1ccc(F)cc1
1 to 10 µM

Tell me measured EC50 for CC(C)(c1ccc(Cl)c(Cl)c1)c1cnc(SCc2ccc(F)cc2C(=O)O)n1-c1ccc(F)cc1 please.
0.1 to 1 µM
